- Test system: Hs578T
- procedure details: normalised response (% of control), CellTox Green; higher = less cell death (100 = DMSO, 0 = benzethonium chloride kill control)
- conditions used: incubation time: 72 h
Please go through the items and note down their normalised response.
Entry format: amount then unit.

Recorded normalised response, per entry:
# compound, measured on, normalised response
records = [
    ("CC(=O)[C@]1(O)Cc2c(O)c3c(c(O)c2[C@@H](O[C@H]2C[C@H](N)[C@H](O)[C@H](C)O2)C1)C(=O)c1ccccc1C3=O [Idarubicin] (100 nM)", "Hs578T", "103%"),
    ("CCn1c(C(=O)N(C2CC2)C2CC2)cc2c3c(ncn3C)c(Nc3cc(C)n(C)n3)nc21 (1000 nM)", "Hs578T", "93%"),
    ("CC[C@H](CO)Nc1nc(NCc2ccccc2)c2ncn(C(C)C)c2n1 [Seliciclib] (10000 nM)", "Hs578T", "84.9%"),
]

Please go through the list and note normalised response for each compound.
1. CC1(C)CCC(c2ccc(Cl)cc2)=C(CN2CCN(c3ccc(C(=O)NS(=O)(=O)c4ccc(N[C@H](CCN5CCOCC5)CSc5ccccc5)c(S(=O)(=O)C(F)(F)F)c4)cc3)CC2)C1 [Navitoclax] (1000 nM)
2. COc1ccc(S(=O)(=O)Nc2cccnc2Nc2ccc(O)cc2)cc1 [ABT-751] (1000 nM)

Marked response:
1: 84.3%; 2: 78.8%

---

- System: MDA-MB-436
- procedure details: drug sensitivity score (DSS), CellTiter-Glo (DSS (AUC-based score)); higher = stronger drug effect (viability inhibition or cytotoxicity); extreme values may be limits of the assay
- conditions used: incubation time: 72 h
Give drug sensitivity score for every item shown.
Give bare numbers.

Before answering, review these 5 worked examples.
# molecule, drug sensitivity score
measured = [
    ("CN[C@@H](C)C(=O)N[C@H]1CN(C(=O)CC(C)C)CC[C@H]2CC[C@@H](C(=O)NC(c3ccccc3)c3ccccc3)N2C1=O [AT-406]", 0),
    ("Cn1cc(C2=C(c3cn(C4CCN(Cc5ccccn5)CC4)c4ccccc34)C(=O)NC2=O)c2ccccc21 [Enzastaurin]", 0),
    ("CC1(C)CCC(c2ccc(Cl)cc2)=C(CN2CCN(c3ccc(C(=O)NS(=O)(=O)c4ccc(N[C@H](CCN5CCOCC5)CSc5ccccc5)c(S(=O)(=O)C(F)(F)F)c4)cc3)CC2)C1 [Navitoclax]", 0),
    ("Cc1nc(C(=O)NCC(=O)O)c(O)c2ccc(Oc3ccccc3)cc12 [FG-4592]", 0),
    ("COc1ccc(S(=O)(=O)Nc2cccnc2Nc2ccc(O)cc2)cc1 [ABT-751]", 11.4),
]

Hello, I would appreciate it if you could give drug sensitivity score for each entry below.
1. C=CCn1c(=O)c2cnc(Nc3ccc(N4CCN(C)CC4)cc3)nc2n1-c1cccc(C(C)(C)O)n1 [MK1775]
2. CCN(CC)CCCC(C)Nc1ccnc2cc(Cl)ccc12 (stereo not drawn) [Chloroquine]
3. CN(C)C(=N)NC(=N)N [Metformin]

Marked response:
1: 16.7; 2: 9.03; 3: 0

---

- Test system: CAL-148
- procedure details: normalised viability (% of control), CellTiter-Blue; higher = more viable cells (about 100 = DMSO control)
- conditions used: 3 nM; incubation time: 72 h
For each entry below, report its normalised viability value.

Known normalised viability results, listed for orientation:
# compound, normalised viability
measured = [
    ("Nc1ccn([C@@H]2O[C@H](CO)[C@@H](O)C2(F)F)c(=O)n1", "92.1%"),
    ("COc1cc(Nc2c(C#N)cnc3cc(OCCCN4CCN(C)CC4)c(OC)cc23)c(Cl)cc1Cl", "77.2%"),
    ("CC(O)(CS(=O)(=O)c1ccc(F)cc1)C(=O)Nc1ccc(C#N)c(C(F)(F)F)c1 (stereo unspecified) [Bicalutamide]", "101%"),
]

Could I get normalised viability for every one of these entries?
1. CO[C@@]12[C@H](COC(N)=O)C3=C(C(=O)C(C)=C(N)C3=O)N1C[C@@H]1N[C@@H]12
2. COc1c2occc2cc2ccc(=O)oc12

Marked response:
1: 97.3%; 2: 98.7%

Sure, the documented normalised viability for CN(Cc1cnc2nc(N)nc(N)c2n1)c1ccc(C(=O)N[C@@H](CCC(=O)O)C(=O)O)cc1 [Methotrexate] is 99.8%
